Tested on: NanoLuc luciferase (NLuc)
ASSAY PROCEDURE: normalised percent inhibition of luminescence (vs positive and negative controls); higher = stronger inhibition
EXPERIMENTAL SETUP: metal salt concentration 0.0005 mM; 100 mM HEPES buffer
Would you mind telling me the reported normalised percent inhibition of each entry?
// return numeric value only (unit: %, not printed)

Recorded result, O=S(=O)([O-])[O-].[Fe+2] [iron(II) sulfate] , normalised percent inhibition: 3.64

Recorded result, O=[N+]([O-])[O-].O=[N+]([O-])[O-].[Cd+2] [cadmium nitrate] , normalised percent inhibition: -3.63

Recorded result, [Cl][Pt-2]([Cl])([Cl])[Cl].[K+].[K+] [potassium tetrachloroplatinate(II)] , normalised percent inhibition: 2.19

Recorded result, O.O.O.O.O.O.O.O=S(=O)([O-])[O-].[Mg+2] [magnesium sulfate] , normalised percent inhibition: -0.0243

Recorded result, O=[N+]([O-])[O-].O=[N+]([O-])[O-].[Cu+2] [copper(II) nitrate] , normalised percent inhibition: 1.75

Recorded result, [Cl][Fe]([Cl])[Cl] [iron(III) chloride] , normalised percent inhibition: -1.65

Recorded result, CC#N.CC#N.CC#N.CC#N.F[B-](F)(F)F.[Cu+] [tetrakis(acetonitrile)copper(I) tetrafluoroborate] , normalised percent inhibition: 3.53

Recorded result, [Cl][Fe][Cl] [iron(II) chloride] , normalised percent inhibition: -2.14

Recorded result, [Cl][Sn][Cl] [tin(II) chloride] , normalised percent inhibition: -1.03

Recorded result, O=[N+]([O-])[O-].[Ag+] [silver nitrate] , normalised percent inhibition: -1.42

====

Test system: NanoLuc luciferase (NLuc)
ASSAY PROCEDURE: normalised percent inhibition of luminescence (vs positive and negative controls); higher = stronger inhibition
EXPERIMENTAL SETUP: metal salt concentration 0.005 mM; screening conditions buffer
Would you mind telling me the reported normalised percent inhibition of each entry?
// return numeric value only (unit: %, not printed)

Recorded result, CC#N.CC#N.CC#N.CC#N.F[B-](F)(F)F.[Cu+] [tetrakis(acetonitrile)copper(I) tetrafluoroborate] , normalised percent inhibition: 0.553

Recorded result, O=[N+]([O-])[O-].O=[N+]([O-])[O-].[Cd+2] [cadmium nitrate] , normalised percent inhibition: 6.73

Recorded result, O=[N+]([O-])[O-].O=[N+]([O-])[O-].[Zn+2] [zinc nitrate] , normalised percent inhibition: -0.897

Recorded result, O=[N+]([O-])[O-].O=[N+]([O-])[O-].[Pb+2] [lead(II) nitrate] , normalised percent inhibition: -3.52

====

Would you mind telling me the reported normalised percent inhibition of each entry?
System: Renilla luciferase (RLuc)
ASSAY PROCEDURE: normalised percent inhibition of luminescence (vs positive and negative controls); higher = stronger inhibition
EXPERIMENTAL SETUP: metal salt concentration 0.05 mM; screening conditions buffer
Quote the value and follow it with the unit of measurement.

Lab entry: Renilla luciferase (RLuc) assay, compound [Cl][Pt-2]([Cl])([Cl])[Cl].[K+].[K+] [potassium tetrachloroplatinate(II)] , normalised percent inhibition = 19.4%

Lab entry: Renilla luciferase (RLuc) assay, compound O=[N+]([O-])[O-].O=[N+]([O-])[O-].[Zn+2] [zinc nitrate] , normalised percent inhibition = -2.83%

Lab entry: Renilla luciferase (RLuc) assay, compound O=S(=O)([O-])[O-].[Fe+2] [iron(II) sulfate] , normalised percent inhibition = 3.55%

====

Would you mind telling me the reported normalised percent inhibition of each entry?
Test system: Renilla luciferase (RLuc)
ASSAY PROCEDURE: normalised percent inhibition of luminescence (vs positive and negative controls); higher = stronger inhibition
EXPERIMENTAL SETUP: metal salt concentration 5 mM; screening conditions buffer
// return numeric value only (unit: %, not printed)

Recorded result, O=[N+]([O-])[O-].[Ag+] [silver nitrate] , normalised percent inhibition: 106

Recorded result, O=[N+]([O-])[O-].O=[N+]([O-])[O-].[Cu+2] [copper(II) nitrate] , normalised percent inhibition: 106

Recorded result, [Cl][Sn][Cl] [tin(II) chloride] , normalised percent inhibition: 103

Recorded result, [Cl][Fe]([Cl])[Cl] [iron(III) chloride] , normalised percent inhibition: 105

Recorded result, O=[N+]([O-])[O-].O=[N+]([O-])[O-].[Cd+2] [cadmium nitrate] , normalised percent inhibition: 93.4

Recorded result, [Cl][Pt-2]([Cl])([Cl])[Cl].[K+].[K+] [potassium tetrachloroplatinate(II)] , normalised percent inhibition: 106

Recorded result, O=S(=O)([O-])[O-].[Fe+2] [iron(II) sulfate] , normalised percent inhibition: 105

Recorded result, O=[N+]([O-])[O-].O=[N+]([O-])[O-].[Pb+2] [lead(II) nitrate] , normalised percent inhibition: 94.9

Recorded result, O=[N+]([O-])[O-].O=[N+]([O-])[O-].O=[N+]([O-])[O-].[Ga+3] [gallium(III) nitrate] , normalised percent inhibition: 71.8

Recorded result, CC#N.CC#N.CC#N.CC#N.F[B-](F)(F)F.[Cu+] [tetrakis(acetonitrile)copper(I) tetrafluoroborate] , normalised percent inhibition: 106

Recorded result, O=[N+]([O-])[O-].O=[N+]([O-])[O-].[Zn+2] [zinc nitrate] , normalised percent inhibition: 85.5

Recorded result, [Cl][Fe][Cl] [iron(II) chloride] , normalised percent inhibition: 106

====

Would you mind telling me the reported normalised percent inhibition of each entry?
Tested on: firefly luciferase (FLuc)
ASSAY PROCEDURE: normalised percent inhibition of luminescence (vs positive and negative controls); higher = stronger inhibition
EXPERIMENTAL SETUP: metal salt concentration 5 mM; 100 mM HEPES buffer
Quote the value and follow it with the unit of measurement.

Recorded result, O=[N+]([O-])[O-].O=[N+]([O-])[O-].[Pb+2] [lead(II) nitrate] , normalised percent inhibition: 99.6%

Recorded result, [Cl][Fe]([Cl])[Cl] [iron(III) chloride] , normalised percent inhibition: 99.8%

Recorded result, [Cl][Fe][Cl] [iron(II) chloride] , normalised percent inhibition: 100%

Recorded result, O=[N+]([O-])[O-].O=[N+]([O-])[O-].O=[N+]([O-])[O-].[Ga+3] [gallium(III) nitrate] , normalised percent inhibition: 100%

Recorded result, CC#N.CC#N.CC#N.CC#N.F[B-](F)(F)F.[Cu+] [tetrakis(acetonitrile)copper(I) tetrafluoroborate] , normalised percent inhibition: 100%

Recorded result, [Cl][Sn][Cl] [tin(II) chloride] , normalised percent inhibition: 101%

Recorded result, O=[N+]([O-])[O-].[Ag+] [silver nitrate] , normalised percent inhibition: 100%

Recorded result, O=S(=O)([O-])[O-].[Fe+2] [iron(II) sulfate] , normalised percent inhibition: 100%

Recorded result, O=[N+]([O-])[O-].O=[N+]([O-])[O-].[Cd+2] [cadmium nitrate] , normalised percent inhibition: 99.3%

Recorded result, O=[N+]([O-])[O-].O=[N+]([O-])[O-].[Cu+2] [copper(II) nitrate] , normalised percent inhibition: 99.9%

Recorded result, O.O.O.O.O.O.O.O=S(=O)([O-])[O-].[Mg+2] [magnesium sulfate] , normalised percent inhibition: 4.85%

Recorded result, O=[N+]([O-])[O-].O=[N+]([O-])[O-].[Zn+2] [zinc nitrate] , normalised percent inhibition: 100%

Recorded result, [Cl][Pt-2]([Cl])([Cl])[Cl].[K+].[K+] [potassium tetrachloroplatinate(II)] , normalised percent inhibition: 100%

====

System: NanoLuc luciferase (NLuc)
ASSAY PROCEDURE: normalised percent inhibition of luminescence (vs positive and negative controls); higher = stronger inhibition
EXPERIMENTAL SETUP: metal salt concentration 0.005 mM; screening conditions buffer
Decision: normalised percent inhibition >= 5% yields condition met, all other cases yield condition not met.

// query Could you verify whether the entry O=[N+]([O-])[O-].O=[N+]([O-])[O-].[Cu+2] [copper(II) nitrate] shows normalised percent inhibition of no less than 5%?
// result condition met

// query Could you verify whether the entry O=S(=O)([O-])[O-].[Fe+2] [iron(II) sulfate] shows normalised percent inhibition of no less than 5%?
// result condition met

// query Could you verify whether the entry [Cl][Pt-2]([Cl])([Cl])[Cl].[K+].[K+] [potassium tetrachloroplatinate(II)] shows normalised percent inhibition of no less than 5%?
// result condition not met

// query Could you verify whether the entry [Cl][Sn][Cl] [tin(II) chloride] shows normalised percent inhibition of no less than 5%?
// result condition not met

// query Could you verify whether the entry [Cl][Fe][Cl] [iron(II) chloride] shows normalised percent inhibition of no less than 5%?
// result condition not met

// query Could you verify whether the entry O=[N+]([O-])[O-].O=[N+]([O-])[O-].O=[N+]([O-])[O-].[Ga+3] [gallium(III) nitrate] shows normalised percent inhibition of no less than 5%?
// result condition met

// query Could you verify whether the entry [Cl][Fe]([Cl])[Cl] [iron(III) chloride] shows normalised percent inhibition of no less than 5%?
// result condition not met

// query Could you verify whether the entry O=[N+]([O-])[O-].[Ag+] [silver nitrate] shows normalised percent inhibition of no less than 5%?
// result condition met
